# target entity: Protein cereblon/Glycogen synthase kinase-3 beta (Homo sapiens, UniProt P49841+Q96SW2)
# Sequence (P49841 whole entry, looked up): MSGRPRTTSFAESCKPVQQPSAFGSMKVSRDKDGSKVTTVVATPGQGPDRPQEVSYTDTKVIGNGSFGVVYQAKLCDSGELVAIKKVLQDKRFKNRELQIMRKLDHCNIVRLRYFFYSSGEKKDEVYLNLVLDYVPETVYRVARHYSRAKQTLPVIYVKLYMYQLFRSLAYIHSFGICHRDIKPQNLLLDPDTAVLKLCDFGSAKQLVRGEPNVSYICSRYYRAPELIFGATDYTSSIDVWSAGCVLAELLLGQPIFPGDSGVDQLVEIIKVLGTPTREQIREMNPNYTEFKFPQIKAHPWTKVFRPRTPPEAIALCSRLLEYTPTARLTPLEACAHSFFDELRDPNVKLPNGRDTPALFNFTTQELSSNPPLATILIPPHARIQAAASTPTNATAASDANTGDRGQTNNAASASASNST
# Sequence (Q96SW2 whole entry, looked up): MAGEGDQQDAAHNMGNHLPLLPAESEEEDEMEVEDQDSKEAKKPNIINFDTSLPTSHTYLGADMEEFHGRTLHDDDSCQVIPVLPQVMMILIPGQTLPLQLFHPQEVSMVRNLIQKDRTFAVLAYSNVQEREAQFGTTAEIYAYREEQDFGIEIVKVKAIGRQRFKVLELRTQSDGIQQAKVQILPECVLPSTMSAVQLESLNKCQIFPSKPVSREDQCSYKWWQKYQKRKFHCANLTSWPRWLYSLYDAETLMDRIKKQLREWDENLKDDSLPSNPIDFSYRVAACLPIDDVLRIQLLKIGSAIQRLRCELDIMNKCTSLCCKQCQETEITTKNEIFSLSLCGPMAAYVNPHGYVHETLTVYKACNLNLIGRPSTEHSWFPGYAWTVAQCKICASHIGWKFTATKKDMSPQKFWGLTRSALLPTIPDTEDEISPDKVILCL
# assay details: Protac activity at CRBN/GSK3beta in human SH-SY5Y cells assessed as induction of GSK3beta degradation at 1 uM measured after 24 hrs
# Format: cell-based
Measured Activity by item
API: value field is a number in %; no unit string.

Nc1ncc(-c2ccc(S(=O)(=O)N3CCN(Cc4cn(CCOCCOCCOCCOCCNc5cccc6c5C(=O)N(C5CCC(=O)NC5=O)C6=O)nn4)CC3)cc2)nc1C(=O)Nc1cccnc1 (centres undefined); 65
COc1ccc(-c2ocnc2C(=O)NCCCc2cn(CCOCCOCCNc3cccc4c3C(=O)N(C3CCC(=O)NC3=O)C4=O)nn2)cc1Cl (centres undefined); 28.2
COc1ccc(-c2ocnc2C(=O)NCCCc2cn(CCOCCOCCOCCOCCNc3cccc4c3C(=O)N(C3CCC(=O)NC3=O)C4=O)nn2)cc1Cl (centres undefined); 49.2

// recorded Activity for COc1ccc(-c2ocnc2C(=O)NCCCc2cn(CCOCCOCCNc3cccc4c3C(=O)N(C3CCC(=O)NC3=O)C4=O)nn2)cc1I (centres undefined) : 25.5

// recorded Activity for Nc1ncc(-c2ccc(S(=O)(=O)N3CCN(CCCCc4cn(CCOCCOCCOCCOCCOCCOCCNc5cccc6c5C(=O)N(C5CCC(=O)NC5=O)C6=O)nn4)CC3)cc2)nc1C(=O)Nc1cccnc1 (centres undefined) : 87

---

Measured Activity by item
# target entity: Protein cereblon/Glycogen synthase kinase-3 alpha (Homo sapiens, UniProt P49840+Q96SW2)
# Sequence (P49840 2-483 limits assumed): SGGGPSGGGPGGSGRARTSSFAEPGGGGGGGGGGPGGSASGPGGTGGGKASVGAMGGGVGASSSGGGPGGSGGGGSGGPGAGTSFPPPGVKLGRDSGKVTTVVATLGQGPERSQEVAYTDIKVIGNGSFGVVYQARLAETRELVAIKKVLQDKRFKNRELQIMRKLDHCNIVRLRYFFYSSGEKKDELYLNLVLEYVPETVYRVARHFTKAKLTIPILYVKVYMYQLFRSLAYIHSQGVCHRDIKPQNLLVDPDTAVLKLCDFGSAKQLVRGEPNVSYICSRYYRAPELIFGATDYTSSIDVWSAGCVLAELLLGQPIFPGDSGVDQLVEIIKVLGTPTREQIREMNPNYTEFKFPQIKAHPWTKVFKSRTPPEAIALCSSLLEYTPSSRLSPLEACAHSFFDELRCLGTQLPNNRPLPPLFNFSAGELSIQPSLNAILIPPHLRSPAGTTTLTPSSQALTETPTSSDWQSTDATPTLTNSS
# Sequence (Q96SW2 whole entry partner): as the sequence (Q96SW2 whole entry, looked up) above
# assay details: Protac activity at CRBN/GSK3alpha in human SH-SY5Y cells assessed as induction of GSK3alpha protein degradation at 10 uM measured after 24 hrs
# Assay type: cell-based
API: value field is a number in %; no unit string.

Study these solved cases before continuing.
COc1ccc(-c2ocnc2C(=O)NCCCc2cn(CCOCCOCCOCCOCCOCCNc3cccc4c3C(=O)N(C3CCC(=O)NC3=O)C4=O)nn2)cc1Cl (stereo not drawn); 84.6
COc1ccc(-c2ocnc2C(=O)NCCCn2cc(COCCOCCOCCOc3cccc4c3CN(C3CCC(=O)NC3=O)C4=O)nn2)cc1Cl (stereo not drawn); 76.4
COc1ccc(-c2ocnc2C(=O)NCCCc2cn(CCOCCOCCOCCNc3cccc4c3C(=O)N(C3CCC(=O)NC3=O)C4=O)nn2)cc1Cl (stereo not drawn); 89.9

// recorded Activity for Nc1ncc(-c2ccc(S(=O)(=O)N3CCN(Cc4cn(CCOCCOCCOCCOCCOCCNc5cccc6c5C(=O)N(C5CCC(=O)NC5=O)C6=O)nn4)CC3)cc2)nc1C(=O)Nc1cccnc1 (stereo not drawn) : 65.9

// recorded Activity for Nc1ncc(-c2ccc(S(=O)(=O)N3CCN(Cc4cn(CCOCCOCCOCCNc5cccc6c5C(=O)N(C5CCC(=O)NC5=O)C6=O)nn4)CC3)cc2)nc1C(=O)Nc1cccnc1 (stereo not drawn) : 86.4

---

# target entity: Protein cereblon/Glycogen synthase kinase-3 beta (Homo sapiens, UniProt P49841+Q96SW2)
# assay details: Protac activity at CRBN/GSK3beta in human SH-SY5Y cells assessed as induction of GSK3beta degradation at 10 uM measured after 24 hrs
# Type: cell-based
Quick rule for you: Activity at 70% or higher means Satisfied, lower means Not satisfied.

The examples below pair each entry with its known result.
COc1ccc(-c2ocnc2C(=O)NCCCc2cn(CCOCCOCCOCCNc3cccc4c3C(=O)N(C3CCC(=O)NC3=O)C4=O)nn2)cc1Cl (stereo not drawn); Satisfied
COc1ccc(-c2ocnc2C(=O)NCCCn2cc(COCCOCCOCCOCC(=O)N[C@@H](C(=O)N3C[C@H](O)C[C@H]3C(=O)NCc3ccc(-c4scnc4C)cc3)C(C)(C)C)nn2)cc1Cl; Not satisfied
Nc1ncc(-c2ccc(S(=O)(=O)N3CCN(Cc4cn(CCOCCOCCOCCOCCOCCNc5cccc6c5C(=O)N(C5CCC(=O)NC5=O)C6=O)nn4)CC3)cc2)nc1C(=O)Nc1cccnc1 (stereo not drawn); Satisfied

In plain terms: is recorded Activity at least 70% for Nc1ncc(-c2ccc(S(=O)(=O)N3CCN(Cc4cn(CCOCCOCCOCCNc5cccc6c5C(=O)N(C5CCC(=O)NC5=O)C6=O)nn4)CC3)cc2)nc1C(=O)Nc1cccnc1 (stereo not drawn) ? Satisfied

In plain terms: is recorded Activity at least 70% for COc1ccc(-c2ocnc2C(=O)NCCCc2cn(CCOCCOCCOCCNC(=O)CNc3cccc4c3CN(C3CCC(=O)NC3=O)C4=O)nn2)cc1Cl (stereo not drawn) ? Not satisfied

In plain terms: is recorded Activity at least 70% for COc1ccc(-c2ocnc2C(=O)NCCCn2cc(COCCOCCOCCOc3cccc4c3CN(C3CCC(=O)NC3=O)C4=O)nn2)cc1Cl (stereo not drawn) ? Not satisfied

In plain terms: is recorded Activity at least 70% for COc1ccc(-c2ocnc2C(=O)NCCCc2cn(CCOCCOCCOCCOCCOCCNc3cccc4c3C(=O)N(C3CCC(=O)NC3=O)C4=O)nn2)cc1Cl (stereo not drawn) ? Satisfied

In plain terms: is recorded Activity at least 70% for COc1ccc(-c2ocnc2C(=O)NCCCn2cc(CCCCC(=O)N[C@@H](C(=O)N3C[C@H](O)C[C@H]3C(=O)NCc3ccc(-c4scnc4C)cc3)C(C)(C)C)nn2)cc1Cl ? Not satisfied
